# Subject Of Test: TbrPDEB1 (Trypanosoma brucei)
# Sequence (Q8WQX9 1-930): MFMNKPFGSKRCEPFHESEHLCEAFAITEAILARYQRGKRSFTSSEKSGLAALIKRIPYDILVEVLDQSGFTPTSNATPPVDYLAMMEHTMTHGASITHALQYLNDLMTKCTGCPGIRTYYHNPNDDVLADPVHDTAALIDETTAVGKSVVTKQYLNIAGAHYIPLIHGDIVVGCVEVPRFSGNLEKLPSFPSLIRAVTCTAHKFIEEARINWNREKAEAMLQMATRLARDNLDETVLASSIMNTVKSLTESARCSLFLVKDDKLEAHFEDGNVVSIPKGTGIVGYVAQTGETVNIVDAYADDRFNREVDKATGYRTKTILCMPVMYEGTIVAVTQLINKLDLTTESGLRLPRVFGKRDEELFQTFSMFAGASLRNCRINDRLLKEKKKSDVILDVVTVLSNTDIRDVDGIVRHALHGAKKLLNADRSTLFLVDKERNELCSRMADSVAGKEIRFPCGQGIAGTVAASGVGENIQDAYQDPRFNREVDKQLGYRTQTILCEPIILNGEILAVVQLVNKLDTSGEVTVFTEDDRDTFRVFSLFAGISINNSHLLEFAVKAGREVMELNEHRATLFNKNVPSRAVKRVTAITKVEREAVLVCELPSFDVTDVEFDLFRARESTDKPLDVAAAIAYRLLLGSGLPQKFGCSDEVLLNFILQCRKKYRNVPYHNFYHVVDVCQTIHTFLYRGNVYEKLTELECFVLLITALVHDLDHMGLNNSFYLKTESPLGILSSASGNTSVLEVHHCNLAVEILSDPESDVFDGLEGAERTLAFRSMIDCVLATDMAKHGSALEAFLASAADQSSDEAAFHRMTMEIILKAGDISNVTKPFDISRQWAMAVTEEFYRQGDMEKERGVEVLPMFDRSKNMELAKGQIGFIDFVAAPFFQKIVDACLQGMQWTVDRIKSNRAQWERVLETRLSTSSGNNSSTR
# Experiment Summary: TbrPDEB1 biochemical assay
# Measurement Setup: read-out: TbrPDEB1 (% inh)
Measurement Label: inhibition at 10 µM (%)

For orientation, consider the following solved cases.
# Compound, Subject Of Test, Scale Unit, Value Measured
rows = [
    ("COC(=O)c1cc(C(=O)O)cc(-c2cc(C)c3ncc(C(N)=O)c(Nc4cccc(OC)c4)c3c2)c1 [Compound 18b]", "TbrPDEB1 (Trypanosoma brucei)", "%", 31),
    ("COC(=O)c1cccc(Nc2cc(C)c3ncc(C(N)=O)c(Nc4cccc(OC)c4)c3c2)c1 [Compound 13]", "TbrPDEB1 (Trypanosoma brucei)", "%", 84),
]

1 = COC(=O)c1cccc(Sc2cc(C)c3ncc(C(N)=O)c(Nc4cccc(OC)c4)c3c2)c1 [Compound 9a]
2 = COC(=O)c1cccc(-c2cc(C)c3ncc(C(N)=O)c(-c4cccc(C(=O)OC)c4)c3c2)c1 [Compound 21a]
Which one would you say has the larger inhibition at 10 µM value: 1 , or 2 ? Answer = label.
2

---

# Subject Of Test: TbrPDEB1 (Trypanosoma brucei)
# Experiment Summary: TbrPDEB1 biochemical assay
# Measurement Setup: read-out: TbrPDEB1 (% inh)
Measurement Label: inhibition at 10 µM (%)

For orientation, consider the following solved cases.
# Compound, Value Measured
data = [
    ("COc1cccc(Nc2c(C(N)=O)cnc3c(C)cc(S(=O)(=O)c4cccc(C(N)=O)c4)cc23)c1 [Compound 12a]", 64),
    ("COc1cccc(Nc2c(C(N)=O)cnc3c(C)cc(-c4cc(C(=O)O)cc(C(=O)O)c4)cc23)c1 [Compound 18a]", 10),
    ("COc1cccc(Nc2c(C(=O)N(C)C)cnc3c(C)cc(-c4ccc5cnn(C)c5c4)cc23)c1 [Compound 27b]", 22),
]

a = COC(=O)c1cccc(S(=O)(=O)c2cc(C)c3ncc(C(N)=O)c(Nc4cccc(OC)c4)c3c2)c1 [Compound 10a]
b = COc1cccc(Nc2c(C(N)=O)cnc3c(C)cc(Sc4ccccc4)cc23)c1 [Compound 9b]
Which one would you say has the larger inhibition at 10 µM value: a , or b ? Answer = label.
a

---

# Subject Of Test: TbrPDEB1 (Trypanosoma brucei)
# Experiment Summary: TbrPDEB1 biochemical assay
# Measurement Setup: read-out: TbrPDEB1 (% inh)
Measurement Label: inhibition at 10 µM (%)

For orientation, consider the following solved cases.
# Compound, Value Measured
rows = [
    ("COC(=O)c1cccc(-c2cc(C)c3ncc(C(N)=O)cc3c2)c1 [Compound 21b]", 0),
    ("CNC(=O)c1cnc2c(C)cc(-c3ccc4cnn(C)c4c3)cc2c1Nc1cccc(OC)c1 [Compound 27a]", 34),
    ("COc1cccc(Nc2c(C(N)=O)cnc3c(C)cc(S(=O)(=O)c4cccc(C(=O)O)c4)cc23)c1 [Compound 11]", 82),
    ("Cc1cc(-c2cccc(-c3ncco3)c2)cc2c(NC3CCCC3)c(C(N)=O)cnc12 [Compound 28]", 76),
    ("COc1cccc(Nc2c(C(N)=O)cnc3c(C)cc(S(=O)(=O)c4cccc(C(=O)N(C)C)c4)cc23)c1 [Compound 3, GSK-256066, reference compound]", 51),
]

a = CNC(=O)c1cccc(S(=O)(=O)c2cc(C)c3ncc(C(N)=O)c(Nc4cccc(OC)c4)c3c2)c1 [Compound 12b]
b = COc1cccc(Nc2c(C(N)=O)cnc3c(C)cc(S(=O)(=O)c4ccccc4)cc23)c1 [Compound 10b]
Which one would you say has the larger inhibition at 10 µM value: a , or b ? Answer = label.
a
(a: 66%, b: 21%)

Provenance of the data: paper PMC4385514
